These measurements were taken from patent US20240124428A1.

Can you tell me inhibition at 10 µM for the items I'm about to list?
- target.desc: CYP2D6 (Homo sapiens)
- Construct: using human liver microsomes; from tissue; host or cells: human liver microsomes
- Sequence (P10635 whole entry): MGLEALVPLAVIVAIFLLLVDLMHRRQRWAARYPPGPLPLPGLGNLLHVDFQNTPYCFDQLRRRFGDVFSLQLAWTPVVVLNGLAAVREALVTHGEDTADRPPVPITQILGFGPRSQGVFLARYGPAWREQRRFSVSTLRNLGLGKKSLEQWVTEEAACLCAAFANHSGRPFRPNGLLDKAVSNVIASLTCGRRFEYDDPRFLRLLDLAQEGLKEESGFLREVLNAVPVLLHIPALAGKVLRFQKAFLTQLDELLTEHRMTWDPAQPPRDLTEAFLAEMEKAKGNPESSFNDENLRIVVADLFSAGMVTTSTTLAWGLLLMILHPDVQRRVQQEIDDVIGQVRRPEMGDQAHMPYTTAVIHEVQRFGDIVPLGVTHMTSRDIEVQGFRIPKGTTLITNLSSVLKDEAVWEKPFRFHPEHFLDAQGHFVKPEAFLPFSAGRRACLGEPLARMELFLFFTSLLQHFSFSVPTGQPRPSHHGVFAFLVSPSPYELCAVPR
- protocol: CYP inhibition assay, CYP2D6
- Format: in vitro ADME
- reported.conditions: probe Bufaralol (10 μM), human liver microsomes
Give bare numbers, in %.

Field: example entries. Status: answers known.
{"smiles.str": "Cc1cn(-c2cc(CN3CCC[C@H](N)C3)cc(NC(=O)c3cc(-c4ccccc4)ccn3)c2)cn1", "unit.descriptor": "%", "readout.value": 69.8}
{"smiles.str": "Cc1ccc(-c2cc(CN3CCC(F)(F)[C@H](N)C3)cc(NC(=O)c3cc(-c4ccccc4)ccn3)c2)cn1", "unit.descriptor": "%", "readout.value": 25.6}

Pending molecule:
query: Notebook entry, CYP2D6 (Homo sapiens) assay: inhibition at 10 µM of `Cc1cnc(C(=O)Nc2cc(CN3CCC(F)(F)[C@H](N)C3)cc(-c3ccc(C(F)(F)F)nc3)c2)cc1-c1ccccc1` = ?
result: 11.4
